- assay-summary: Half life in Sprague-Dawley rat at 1 mg/kg, iv
- Type: ADME, organism-based
- Parameters: dose 1 mg/kg, route intravenous
- measurement-context: in vivo
recorded-metric: half-life (h)

Examples with answers:
CC(C)C1(c2ccc(-c3ccc4c(ccn4C)c3)[nH]c2=O)OC(=O)NC1=O (stereo not given) = 4.2
CC(C)C1(c2ccc(-c3ccc4cccc(F)c4c3)[nH]c2=O)OC(=O)NC1=O (stereo not given) = 3.9
CC(C)C1(c2ccc(-c3ccc4ccccc4c3)[nH]c2=O)OC(O)=NC1=O (stereo not given) = 4

(a) O=C1NC(=O)C(c2ccc(-c3ccc4ccccc4c3)[nH]c2=O)O1 (stereo not given)
(b) Cc1ccc(-c2ccc(C3(C(C)C)OC(=O)NC3=O)c(=O)[nH]2)cc1C (stereo not given)
Task: Choose between a and b : whose measured half-life value is numerically larger? The response must carry the label of the picked entry.
Output: a
(a: 5.1 h, b: 2.8 h)

----------
- assay-summary: Drug metabolism in rat liver S9 fraction assessed as NADPH-dependent glutathione conjugate level at 10 uM after 30 mins by LC-MS/MS analysis
- Format: ADME, subcellular
- measurement-context: s9, 0.5 h
recorded-metric: Drug metabolism

CC(C)C1(c2ccc(-c3ccc4cccc(F)c4c3)[nH]c2=O)OC(=O)NC1=O (centres undefined) = Not Active
CC(C)C1(c2ccc(-c3ccc4c(ccn4C)c3)[nH]c2=O)OC(=O)NC1=O (centres undefined) = Not Active
Cc1ccc(-c2ccc(C3(C(C)C)OC(=O)NC3=O)c(=O)[nH]2)cc1C (centres undefined) = Not Active

----------
- tested-system: Prostaglandin E2 receptor EP3 subtype (Rattus norvegicus, UniProt P34980)
- Sequence (P34980 whole entry): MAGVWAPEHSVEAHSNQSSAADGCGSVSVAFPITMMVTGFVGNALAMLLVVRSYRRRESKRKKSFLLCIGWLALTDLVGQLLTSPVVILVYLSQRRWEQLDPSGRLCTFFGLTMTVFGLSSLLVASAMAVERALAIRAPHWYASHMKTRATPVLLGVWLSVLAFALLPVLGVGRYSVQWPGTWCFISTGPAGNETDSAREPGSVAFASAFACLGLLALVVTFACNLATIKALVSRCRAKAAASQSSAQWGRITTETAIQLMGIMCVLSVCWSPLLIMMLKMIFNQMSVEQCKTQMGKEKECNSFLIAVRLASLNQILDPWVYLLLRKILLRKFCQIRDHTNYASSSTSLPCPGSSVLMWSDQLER
- assay-summary: Antagonist activity at rat EP3 receptor expressed in human U2OS cells co-expressing Gqi5 assessed as inhibition of PGE2-induced response after 24 hrs by FLIPR assay
pKi: −log10 of the molar value.
recorded-metric: pKi

CC(C)C1(c2ccc(-c3ccc4ccccc4c3)[nH]c2=O)OC(O)=NC1=O (stereo not given) = 8.00
CC(C)C1(c2ccc(-c3ccc4c(ccn4C)c3)[nH]c2=O)OC(=O)NC1=O (stereo not given) = 8.10
Cc1ccc(-c2ccc(C3(C(C)C)OC(=O)NC3=O)c(=O)[nH]2)cc1C (stereo not given) = 7.90

(I) CC(C)C1(c2ccc(-c3ccc4cccc(F)c4c3)[nH]c2=O)OC(=O)NC1=O (stereo not given)
(II) O=C1NC(=O)C(c2ccc(-c3ccc4ccccc4c3)[nH]c2=O)O1 (stereo not given)
Task: Choose between I and II : whose measured pKi value is numerically larger? The response must carry the label of the picked entry.
Output: I
(I: 8.50, II: 6.50)

----------
- assay-summary: Clearance in Sprague-Dawley rat at 1 mg/kg, iv and 2 mg/kg, po
- Assay type: ADME, organism-based
- measurement-context: in vivo
recorded-metric: clearance (mL/min/kg)

Examples with answers:
CC(C)C1(c2ccc(-c3ccc4cccc(F)c4c3)[nH]c2=O)OC(=O)NC1=O (stereo not given) = 2.8
O=C1NC(=O)C(c2ccc(-c3ccc4ccccc4c3)[nH]c2=O)O1 (stereo not given) = 31
CC(C)C1(c2ccc(-c3ccc4c(ccn4C)c3)[nH]c2=O)OC(=O)NC1=O (stereo not given) = 4.5

(1) CC(C)C1(c2ccc(-c3ccc4ccccc4c3)[nH]c2=O)OC(O)=NC1=O (stereo not given)
(2) Cc1ccc(-c2ccc(C3(C(C)C)OC(=O)NC3=O)c(=O)[nH]2)cc1C (stereo not given)
Task: Choose between 1 and 2 : whose measured clearance value is numerically larger? The response must carry the label of the picked entry.
Output: 2

----------
- tested-system: Prostaglandin G/H synthase 1 (Rattus norvegicus)
- Sequence (Q63921 whole entry): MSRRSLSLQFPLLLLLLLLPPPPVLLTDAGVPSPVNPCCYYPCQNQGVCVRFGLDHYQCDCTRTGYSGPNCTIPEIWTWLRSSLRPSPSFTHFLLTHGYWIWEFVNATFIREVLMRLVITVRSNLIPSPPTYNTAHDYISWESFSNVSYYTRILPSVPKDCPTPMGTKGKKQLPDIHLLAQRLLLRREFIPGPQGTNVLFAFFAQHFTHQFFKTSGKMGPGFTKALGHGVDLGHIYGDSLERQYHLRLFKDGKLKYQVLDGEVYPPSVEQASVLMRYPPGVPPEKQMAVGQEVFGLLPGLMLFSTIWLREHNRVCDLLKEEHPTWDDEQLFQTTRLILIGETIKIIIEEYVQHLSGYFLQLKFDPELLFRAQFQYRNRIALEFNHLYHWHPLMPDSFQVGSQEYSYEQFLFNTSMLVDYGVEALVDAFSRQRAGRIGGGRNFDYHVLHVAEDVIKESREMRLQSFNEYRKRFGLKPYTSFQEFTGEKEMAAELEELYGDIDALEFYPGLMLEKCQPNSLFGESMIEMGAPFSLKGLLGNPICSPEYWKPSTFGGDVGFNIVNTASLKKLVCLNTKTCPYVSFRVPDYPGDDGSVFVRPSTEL
- assay-summary: Inhibition of COX1 in rat whole blood assessed as decreased PGE2 production
- Type: tissue-based
pIC50: −log10 of the molar value.
recorded-metric: pIC50

pIC50 reading for CC(C)C1(c2ccc(-c3ccc4ccccc4c3)[nH]c2=O)OC(O)=NC1=O (stereo unspecified) : < 4.00

----------
- assay-summary: Oral bioavailability in Sprague-Dawley rat at 2 mg/kg
- Format: ADME, organism-based
- measurement-context: in vivo
recorded-metric: bioavailability (%)

Examples with answers:
Cc1ccc(-c2ccc(C3(C(C)C)OC(=O)NC3=O)c(=O)[nH]2)cc1C (stereo not given) = 68
CC(C)C1(c2ccc(-c3ccc4ccccc4c3)[nH]c2=O)OC(O)=NC1=O (stereo not given) = 83
CC(C)C1(c2ccc(-c3ccc4c(ccn4C)c3)[nH]c2=O)OC(=O)NC1=O (stereo not given) = 80

(1) CC(C)C1(c2ccc(-c3ccc4cccc(F)c4c3)[nH]c2=O)OC(=O)NC1=O (stereo not given)
(2) O=C1NC(=O)C(c2ccc(-c3ccc4ccccc4c3)[nH]c2=O)O1 (stereo not given)
Task: Choose between 1 and 2 : whose measured bioavailability value is numerically larger? The response must carry the label of the picked entry.
Output: 1
(1: 93%, 2: 32%)

----------
- tested-system: Prostaglandin D2 receptor (Homo sapiens)
- Sequence (Q13258 whole entry): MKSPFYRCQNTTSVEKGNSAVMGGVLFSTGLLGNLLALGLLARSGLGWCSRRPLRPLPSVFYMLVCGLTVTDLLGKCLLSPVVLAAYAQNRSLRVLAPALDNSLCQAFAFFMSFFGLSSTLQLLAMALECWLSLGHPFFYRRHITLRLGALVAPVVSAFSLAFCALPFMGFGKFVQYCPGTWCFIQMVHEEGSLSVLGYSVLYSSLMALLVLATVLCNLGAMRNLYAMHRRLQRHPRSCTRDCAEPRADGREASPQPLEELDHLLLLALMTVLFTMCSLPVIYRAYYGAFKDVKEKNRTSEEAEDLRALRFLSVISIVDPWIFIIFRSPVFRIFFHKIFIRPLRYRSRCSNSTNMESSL
- assay-summary: Binding affinity at human DP receptor
recorded-metric: IC50

IC50 reading for CC(C)C1(c2ccc(-c3ccc4ccccc4c3)[nH]c2=O)OC(O)=NC1=O (stereo unspecified) : > 50.1 µM

----------
- System: Rattus norvegicus
- assay-summary: Dose-normalized AUC in Sprague-Dawley rat at 2 mg/kg, po
- Format: ADME, organism-based
- Design: dose 2 mg/kg, route oral
- measurement-context: in vivo
recorded-metric: AUC/dose (µg·h/mL/mg/kg)

CC(C)C1(c2ccc(-c3ccc4cccc(F)c4c3)[nH]c2=O)OC(=O)NC1=O (stereo not given) = 5.6

(a) Cc1ccc(-c2ccc(C3(C(C)C)OC(=O)NC3=O)c(=O)[nH]2)cc1C (stereo not given)
(b) CC(C)C1(c2ccc(-c3ccc4c(ccn4C)c3)[nH]c2=O)OC(=O)NC1=O (stereo not given)
(c) O=C1NC(=O)C(c2ccc(-c3ccc4ccccc4c3)[nH]c2=O)O1 (stereo not given)
(d) CC(C)C1(c2ccc(-c3ccc4ccccc4c3)[nH]c2=O)OC(O)=NC1=O (stereo not given)
Task: Sort the 4 compounds by AUC/dose; largest first, smallest last. Answer by naming the labels in the order asked.
Output: d, b, a, c
(d: 5.5 µg·h/mL/mg/kg, b: 3 µg·h/mL/mg/kg, a: 1.8 µg·h/mL/mg/kg, c: 0.17 µg·h/mL/mg/kg)

----------
- tested-system: Voltage-gated inwardly rectifying potassium channel KCNH2 (Homo sapiens, UniProt Q12809)
- Sequence (Q12809 whole entry): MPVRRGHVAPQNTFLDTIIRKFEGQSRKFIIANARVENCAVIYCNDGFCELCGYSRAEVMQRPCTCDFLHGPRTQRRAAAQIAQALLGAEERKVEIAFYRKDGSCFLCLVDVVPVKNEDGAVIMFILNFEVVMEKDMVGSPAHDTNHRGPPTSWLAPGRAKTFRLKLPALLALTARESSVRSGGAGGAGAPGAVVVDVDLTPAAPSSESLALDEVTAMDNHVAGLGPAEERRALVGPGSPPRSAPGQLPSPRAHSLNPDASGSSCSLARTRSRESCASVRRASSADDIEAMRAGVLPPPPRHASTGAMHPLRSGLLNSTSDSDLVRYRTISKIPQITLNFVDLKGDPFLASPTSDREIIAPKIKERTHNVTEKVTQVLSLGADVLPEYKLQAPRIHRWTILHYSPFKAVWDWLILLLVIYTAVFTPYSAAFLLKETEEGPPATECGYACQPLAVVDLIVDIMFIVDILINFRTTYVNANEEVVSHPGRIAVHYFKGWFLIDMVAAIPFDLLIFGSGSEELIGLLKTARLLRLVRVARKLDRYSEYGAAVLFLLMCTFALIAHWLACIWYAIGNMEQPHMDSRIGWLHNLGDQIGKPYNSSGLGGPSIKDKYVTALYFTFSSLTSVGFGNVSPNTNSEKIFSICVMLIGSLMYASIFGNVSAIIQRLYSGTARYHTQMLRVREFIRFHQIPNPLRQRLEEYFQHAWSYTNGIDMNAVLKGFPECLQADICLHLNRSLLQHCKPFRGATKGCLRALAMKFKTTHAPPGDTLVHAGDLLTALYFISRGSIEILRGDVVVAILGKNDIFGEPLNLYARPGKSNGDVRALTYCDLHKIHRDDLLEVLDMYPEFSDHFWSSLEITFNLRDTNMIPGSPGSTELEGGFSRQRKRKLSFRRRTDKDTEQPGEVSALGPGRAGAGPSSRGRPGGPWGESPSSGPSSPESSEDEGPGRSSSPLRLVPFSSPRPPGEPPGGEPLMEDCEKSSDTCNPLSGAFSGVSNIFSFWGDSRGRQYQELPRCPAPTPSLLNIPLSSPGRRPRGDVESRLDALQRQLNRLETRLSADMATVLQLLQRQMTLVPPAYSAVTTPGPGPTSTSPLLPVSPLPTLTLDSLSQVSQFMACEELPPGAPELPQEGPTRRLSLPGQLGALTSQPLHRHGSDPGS
pIC50: −log10 of the molar value.
recorded-metric: pIC50

pIC50 reading for CC(C)C1(c2ccc(-c3ccc4ccccc4c3)[nH]c2=O)OC(O)=NC1=O (stereo unspecified) : < 4.30

----------
- tested-system: Cytochrome P450 2D6 (Homo sapiens, UniProt P10635)
- Sequence (P10635 whole entry): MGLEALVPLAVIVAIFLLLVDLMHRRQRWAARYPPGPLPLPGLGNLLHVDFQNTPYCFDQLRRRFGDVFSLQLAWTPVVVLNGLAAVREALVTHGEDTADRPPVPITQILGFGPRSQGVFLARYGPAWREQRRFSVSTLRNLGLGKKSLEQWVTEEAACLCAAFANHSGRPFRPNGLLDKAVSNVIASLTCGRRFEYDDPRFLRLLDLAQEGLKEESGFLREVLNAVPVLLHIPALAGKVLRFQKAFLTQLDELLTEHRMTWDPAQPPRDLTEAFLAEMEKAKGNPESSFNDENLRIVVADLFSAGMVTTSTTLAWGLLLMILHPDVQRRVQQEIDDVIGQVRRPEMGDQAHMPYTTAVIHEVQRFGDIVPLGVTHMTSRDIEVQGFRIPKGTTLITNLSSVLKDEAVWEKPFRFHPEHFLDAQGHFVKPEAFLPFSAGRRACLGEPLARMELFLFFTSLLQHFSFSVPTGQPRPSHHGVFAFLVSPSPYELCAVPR
recorded-metric: IC50

Let me check: CC(C)C1(c2ccc(-c3ccc4ccccc4c3)[nH]c2=O)OC(O)=NC1=O (stereo unspecified) , system Cytochrome P450 2D6 (Homo sapiens, UniProt P10635), measured IC50 is > 50.1 µM

Data provenance: ChEMBL document CHEMBL2034937
